The reported measurements were obtained from paper PMC4855835.

# Assay Details: Hydrogelation assay of self-assembly in water upon ALP addition
# Assay type: physicochemical
# Conditions: 1 mM, pH 7.4, ALP 3U/mL
Measured Parameter: state of the solution after addition of ALP

- Substance Smiles: "CNC(=O)[C@@H](Cc1ccc(OP(=O)(O)O)cc1)NC(=O)[C@@H](Cc1ccccc1)NC(=O)[C@@H](Cc1ccccc1)NC(=O)Cc1ccc2ccccc2c1"
  Result: "turns into a hydrogel"
- Substance Smiles: "NNC(=O)[C@@H](Cc1ccc(OP(=O)(O)O)cc1)NC(=O)[C@@H](Cc1ccccc1)NC(=O)[C@@H](Cc1ccccc1)NC(=O)Cc1ccc2ccccc2c1"
  Result: "turns into a hydrogel"
